Entries and their pull-down binding Z-score values follow.
# Test system: TO-N3 (biotin conjugate)
# test method notes: pull-down binding Z-score (relative to library population); higher = stronger binding
# reported conditions: RNA library: Library-2
Lab note: jot the number down without any unit.

Recorded results for 2 sequences are shown here.
query_sequence="CAAGGGCUCUACUGUCCUUUCAGGAGAGCCCUUG [hsa-mir-4776-2]" target_of_assay="TO-N3 (biotin conjugate)" observed_value=-0.597
query_sequence=CAUGUGGUAGUGUUGGUUUUAACAUAGAUUAUGACUGUGUCUCUUUUUGUUACAUGCACCAUAUG target_of_assay="TO-N3 (biotin conjugate)" observed_value=1.48

Now look at this one.
What measured pull-down binding Z-score goes with GUUCUCUAAACGAAC ?
-0.364

* * *

# Test system: TO-3-N3 (biotin conjugate)
# test method notes: pull-down binding Z-score (relative to library population); higher = stronger binding
# reported conditions: RNA library: Library-2
reported metric: pull-down binding Z-score
Hey, just send me the number, nothing else.

query_sequence="CUCACGUGUGCCUGCCUGUGAG [hsa-mir-339]" observed_value=-1.01
query_sequence=GUACAUACAGCUAAUAAAUGGGAUCUCAUUAUUAGUGAUAUGUAC observed_value=-0.823
query_sequence="GCGGGGUGUGGUGGGGCUGGGGCUGGCCCCCUCCUCACACCUC [hsa-mir-6800]" observed_value=4.74
query_sequence="UUUCAGAUAACUCGGGA [hsa-mir-4320]" observed_value=0.173

Returns the measured pull-down binding Z-score for the input sequence. Input: ACACUAAUUCUUUCACACGUGGUGU [DMSMaPseq_invitro_SARS-CoV-2_Motif_381]
-0.0462

What measured pull-down binding Z-score goes with ACAGAUCUUUACCAGGAGUUUUCUGU ?
-0.933

Requested read-out: pull-down binding Z-score. Entry: GGCUAUGGUUUCCAGAGCC [IAV_invivo_PB1_2_Motif_37+IAV_invivo_PB1_2_Motif_37]
0.417

Reported pull-down binding Z-score for GGGGGCAGGCUGCCACCUCCUG [hsa-mir-8089] : what is it?
1.5

Endpoint output: pull-down binding Z-score of UGUUCAUUCACAUGAUCAUAAGUGGACA [hsa-mir-4643] . Value?
0.535

* * *

# Test system: TO-3-N3 (biotin conjugate)
# test method notes: pull-down binding Z-score (relative to library population); higher = stronger binding
# reported conditions: RNA library: Library-2
Listed here: items and their measured pull-down binding Z-score.
Keep it simple and answer with nothing but the number.

Some sequences with recorded pull-down binding Z-score:
query_sequence="AAAUAAGUAUGAUACUUACCUG [U1snRNP5ss-4]" observed_value=-0.522
query_sequence="GUCUGCCAAAACCUUGGCAGAC [hsa-mir-3913-1]" observed_value=-0.531
query_sequence="GCUGGUAAUGUUCAACUCAGGGUUAUUGGACAUUCUAUGC [SHAPE_invivo_SARS-CoV-2_Motif_203]" observed_value=-0.362

// map ACGAGAGUGAGUAGCAGGUCUC [hsa-mir-128-2] to recorded pull-down binding Z-score (system: TO-3-N3 (biotin conjugate))
-0.117

TO-3-N3 (biotin conjugate) / pull-down binding Z-score / AGGCCGUUGCCAAUCAGAGAACGGCUA [hsa-mir-138-1] : value?
1.23

Hi! What's the reported pull-down binding Z-score for CCCGGCCGGCAGCCCCCGGCCUUAAAGCGCGGG [hsa-mir-4741] on TO-3-N3 (biotin conjugate)?
-0.112

Kindly state the measured pull-down binding Z-score obtained for CUGAAAAAUGGGAAUCUGGAGUAAAAGACUGUGUUGUAUUACACAGUUACUUCACUUCAGACUAUUACCAG with TO-3-N3 (biotin conjugate).
-0.376

Fill in the recorded pull-down binding Z-score for this sequence, with TO-3-N3 (biotin conjugate) as test system: AGGUUUGUGUCCAAUACAGUCCACACCU [hsa-mir-3200]
-0.745

Fill in the recorded pull-down binding Z-score for this sequence, with TO-3-N3 (biotin conjugate) as test system: GUCCAUUAGGCUUUGUUAUGGAAACUUCUCCUGAUC [hsa-mir-635]
0.517

Entry CUUACUGUACACGUGGCUGGCAAG [hsa-mir-4428] , system TO-3-N3 (biotin conjugate): what pull-down binding Z-score was measured?
-0.0149

Give pull-down binding Z-score (TO-3-N3 (biotin conjugate)) of the following sequence: CGGAUUCUGAAAGAAGAAUCCG [IAV_invivo_NS1_NEP_8_Motif_5+IAV_invivo_NS1_NEP_8_Motif_5]
0.432

Recorded pull-down binding Z-score for CUGGACUCUAAAUAGAAACCAACCUGCUGCAACAGCAUUGGCCAACACAAUAGAAGUGUUCAGAUCAAAUGGCCUCACGGCCAAUGAGUCUGG with TO-3-N3 (biotin conjugate), please?
-0.791

Observed pull-down binding Z-score on TO-3-N3 (biotin conjugate) for GCGCCGCCAGAAACUGGCCGCGC [mismatch-CC] , please.
-0.796

I'm curious: which pull-down binding Z-score was measured for CCUGUGAACAGAUUGCUGACUCCCAGCAUCGGUCUCAUAGG [IAV_invivo_M1_M2_7_Motif_10+IAV_invivo_M1_M2_7_Motif_10] tested on TO-3-N3 (biotin conjugate)?
-0.767

What is its pull-down binding Z-score for TO-3-N3 (biotin conjugate)? Entry: AUGUUCGCUUCAUUCAUCAUGAAUAA [hsa-mir-655]
0.297

TO-3-N3 (biotin conjugate) / pull-down binding Z-score / CUGAGAGGUUUACAUUUCUC [hsa-mir-128-1] : value?
-0.664

Checklist item: pull-down binding Z-score tested on TO-3-N3 (biotin conjugate), entry AUAUGAGCUUCAUUUAUACAUUUCAUAU [hsa-mir-556] , value?
-0.0401

Hello, I am looking for reported pull-down binding Z-score with TO-3-N3 (biotin conjugate) for CUGGGUGGGACACUCAG [hsa-mir-4692] . Could you help?
1.24

Tell me reported pull-down binding Z-score for CAAAGACCAGAACUUAAUGGUCUCUG [hsa-mir-4490] , tested with TO-3-N3 (biotin conjugate).
-0.471

What value of pull-down binding Z-score on TO-3-N3 (biotin conjugate) does AUUGGCGACCCUGCUCAAU [DMSMaPseq_invitro_SARS-CoV-2_Motif_311] have?
0.191

Entry UGACAUUACACCAUGUUCUUUUGGUGGUGUCA , system TO-3-N3 (biotin conjugate): what pull-down binding Z-score was measured?
-0.87

# returns recorded pull-down binding Z-score (system: TO-3-N3 (biotin conjugate)) for CAGAGUACUCAAUGGUCUUUG
-0.33

Please tell me: pull-down binding Z-score of GGAUCAUGUUUGCCCCCGUGGACAGCUCUCUGGUGUGCUCCUCCUGCCAUCCUGCCCACCCCUGCAUAAUGCUGCUUC [hsa-mir-6809] , system TO-3-N3 (biotin conjugate)?
0.306

Give recorded pull-down binding Z-score with TO-3-N3 (biotin conjugate) for the following sequence: UUUCUCUUGUCCAAAGGAAAAGAAG [hsa-mir-524]
-0.644

* * *

# Tested on: TO-N3-2 (biotin conjugate)
# test method notes: pull-down binding Z-score (relative to library population); higher = stronger binding
# reported conditions: RNA library: Library-2
reported metric: pull-down binding Z-score
# answer = number (no unit)

query_sequence="CCGAGUGAUCUCGGU [hsa-mir-8071-1_8071-2]" observed_value=-0.0845
query_sequence="AGUGUAAAAGUGCCUUUUACAUU [DMSMaPseq_invitro_SARS-CoV-2_Motif_79]" observed_value=-1.12
query_sequence="GGAUGGCCAGGGAAGUAUGCCGGGCCUUGGCAUUUC [hsa-mir-7159]" observed_value=1.9
query_sequence="UCCCAGCCACUCUGGAGG [hsa-mir-4419b]" observed_value=0.631
query_sequence="GCAUAUAGAGUAUAUGC [hsa-mir-4657]" observed_value=-0.526

Can you look up the measured pull-down binding Z-score of UUUCUAUAACUGGAUGAAA [hsa-mir-498] for me?
-0.778

Field request: pull-down binding Z-score | item: UUUUGCAAUUUUUUAAUGACAAAA [hsa-mir-548t]
-0.704

Return reported pull-down binding Z-score; argument: CCACGGGCUGGGCACAGUGG [hsa-mir-3159]
0.891

Consider the sequence UAUUAUUGCUAUGUCUGCUUUUGCAAUGAUG and give its measured pull-down binding Z-score.
-1.18

Quick one: pull-down binding Z-score for ACAGAUCUUUACCAGGAGUUUUCUGU ?
-1.3

# get_value(readout='pull-down binding Z-score', item= UCCUAUUACGGA [SHAPE_invivo_SARS-CoV-2_Motif_121] )
-1.27

* * *

# Test system: TO-N3 (biotin conjugate)
# test method notes: pull-down binding Z-score (relative to library population); higher = stronger binding
# reported conditions: RNA library: Library-2
Measured pull-down binding Z-score, listed per entry for reference.
Reply with just the number.

Solved cases below.
query_sequence="UUUUUUUCCAAUGAAAAUAACGAAACCUGUUAUUUCCCAUUGAGGGGGAAAAA [hsa-mir-4484]" reported_metric="pull-down binding Z-score" observed_value=-1.15
query_sequence="CCCUGGUCAGACUCUCCGGGG [hsa-mir-4675]" reported_metric="pull-down binding Z-score" observed_value=-0.368
query_sequence="GGGUCGGUUGCUCACAAGUCCUGCCUGCCUGCCU [IAV_invivo_NP_5_Motif_15+IAV_invivo_NP_5_Motif_15]" reported_metric="pull-down binding Z-score" observed_value=0.865
query_sequence="GACAGGGAAAAGCACACAAGGAACUUGUC [hsa-mir-3909]" reported_metric="pull-down binding Z-score" observed_value=-0.0969

Sample CCAGUAUCUGAAUUACUUACACCACUGGGCAUUGAUUUAGAUGAGUGGAGUAUGGCUACAUACUACUUAUUUGAUGAGUCUGGUGAGUUUAAAUUGG — what was its pull-down binding Z-score?
-0.752

Form field: reported pull-down binding Z-score of GGCUUCAUUUAAUUAUUUGAAGUC
-1.24

I am curious: what pull-down binding Z-score value has been reported for AGCUUCUUUAUAAGAAGAGGAAACU [hsa-mir-3923] ?
-0.151

Entry GCUUUUCACCUGUGAUCCCAGGAGAGGAAGC [hsa-mir-646] : reported pull-down binding Z-score = ?
-0.0302

Sample GUCAGGUGAUGGUGAUAAGGUCAAGGCCUG [hsa-mir-6853] — what was its pull-down binding Z-score?
0.388

Dear colleague, I am looking for the recorded pull-down binding Z-score of the following sequence: CUUUUAGAGUAAUUGUGAAACUGUUUUUCAAAG [hsa-mir-562]
-0.769

Form field: reported pull-down binding Z-score of GGAGACAGGUGGUUUCUCAAUCGAUUUACCACAACUCU [SHAPE_invivo_SARS-CoV-2_Motif_209]
-0.19

Param item = GUGCACUUGACCCUCUCUCAGAAACAAAGUGUAC [SHAPE_invivo_SARS-CoV-2_Motif_422] ; retrieve measured pull-down binding Z-score.
0.229

Would you kindly share the measured pull-down binding Z-score for GUUUUCUACAAAGAAAAC ?
-1.09

Using the record for CCCAAACUUGGAGCACUUGACCUUUGGC [hsa-mir-4687] , report its pull-down binding Z-score.
0.815

Provenance of the data: the supplement of paper PMC11865577
